Source listed as the supplement of paper PMC11451515.

system: NOMO1; test: cell viability relative to DMSO control; higher = less cytotoxic; settings: RPMI 5 mM glucose + 10% FBS; 48 h; 5.12 µM
EXPERIMENTAL ENDPOINT: cell viability (%)
Give bare numbers, in %.

CN1C2=CC(=O)/C(=N/NC(N)=O)C=C2CC1S(=O)(=O)[O-].[Na+] (stereo not drawn); 122

Hi team, please reply with cell viability for each item in this list.
1. Cn1cnc(-c2cc3nccc(Oc4ccc(NC(=S)NC(=O)Cc5ccccc5)cc4F)c3s2)c1
2. CO[C@H]1/C=C/O[C@@]2(C)Oc3c(C)c(O)c4c(O)c(c(/C=N\N5CCN(C6CCCC6)CC5)c(O)c4c3C2=O)NC(=O)/C(C)=C\C=C\[C@H](C)[C@H](O)[C@@H](C)[C@@H](O)[C@@H](C)[C@H](OC(C)=O)[C@@H]1C

Reply text:
82.2
17.9

###

Please respond with reported cell viability for every item in the list.
tested on: SEM cells; assay: cell viability relative to DMSO control; higher = less cytotoxic; conditions: HPLM + 10% dialyzed FBS; 48 h; 1.71 µM
Answers are plain numbers, in %.

CCCNCC(O)COc1ccccc1C(=O)CCc1ccccc1 (centres undefined); 112
OCCNC1CCCc2c1[nH]c1ccc(-c3ccccc3)cc21 (centres undefined); 100
Cc1cc(SCc2sc(-c3ccc(C(F)(F)F)cc3)nc2C)ccc1OCC(=O)O; 105
CN(c1nccc(=O)[nH]1)C1CCN(c2nc3ccccc3n2Cc2ccc(F)cc2)CC1; 110
CCCC1=N[N](C)C2=C1\N=C(/NC2=O)C3=CC(=CC=C3OCC)[S+]([O-])(=O)N4CCN(C)CC4; 80.8

Hi team, please reply with cell viability for each item in this list.
1. COc1nccc(-c2c(-c3ccc(F)cc3)ncn2C2CCC(O)CC2)n1 (centres undefined)
2. C/C(=C\c1csc(C)n1)[C@@H]1C[C@@H]2O[C@@H]2CCC[C@H](C)[C@H](O)[C@@H](C)C(=O)C(C)(C)[C@@H](O)CC(=O)O1
3. O=[S+]([O-])(CCSSCC[S+](=O)([O-])[O][Na])[O][Na]
4. O=[N+]([O-])c1ccc(Nc2ccccc2-c2ccccc2)c2nonc12
5. CC(C)C(=O)Nc1ncc(-c2cc(C(F)F)nn2-c2c(Cl)cccc2Cl)s1
6. Cc1ccc(NC(=O)Nc2cc(C(F)(F)F)ccc2F)cc1Nc1ccc2c(c1)NC(=O)/C2=C\c1ccc[nH]1

Reply text:
[113, 21.5, 103, 62.8, 146, 120]

Hi team, please reply with cell viability for each item in this list.
1. O=[S+]([O-])(F)Cc1ccccc1
2. CN1CC/C(CC1)=C3\c4ccccc4CC(=O)c2sccc23
3. NC1CCC(Nc2nc(Nc3ccc(C(=O)N4CCCCC4)cc3)c3ncn(-c4cccc(F)c4)c3n2)CC1 (centres undefined)

Reply text:
1: 133; 2: 133; 3: 59.1

Hi team, please reply with cell viability for each item in this list.
1. C=CC(=O)Nc1cccc(Oc2nc(Nc3ccc(N4CCN(C)CC4)cc3OC)ncc2Cl)c1
2. O=C(O)[C@@H](c1ccc(OCc2ccc3ccccc3n2)cc1)C1CCCC1
3. CN[C@H]1[C@H](O[C@@H]2[C@H](O[C@@H]3[C@@H](O)[C@@H](O)[C@@H](NC(=N)N)[C@@H](O)[C@H]3NC(=N)N)O[C@H](C)[C@@]2(O)C=O)O[C@@H](CO)[C@@H](O)[C@H]1O
4. O=C(NCCCNc1nc(Nc2cccc(NC(=O)N3CCCC3)c2)ncc1I)c1cccs1
5. C=CCc1cc(OC)c(O)c(C(=O)NCCO)c1

Reply text:
68.5
114
57
27.2
92

###

tested on: P12-Ichikawa; experiment: AUC of viability dose-response curve (% viability x log10 dose units); higher = less sensitive; settings: RPMI 5 mM glucose + 10% dialyzed FBS; 48 h
Please respond with reported AUC of viability dose-response curve for every item in the list.

Cc1nnc(N[S+](=O)([O-])c2ccc(N)cc2)s1; 412
O=C(Nc1ccc([N+](=O)[O-])cc1Cl)c1cc(Cl)ccc1O; 335
O=C(C[C@@H]1C/C=C\CCC(=O)O[C@H](c2ccccc2)CNC1=O)NCc1ccc(Cl)cc1; 457
O=[N+]([O-])c1ccc(Nc2ccccc2-c2ccccc2)c2nonc12; 433

// switching to the query compound
Inquiry: What value of AUC of viability dose-response curve has been reported for the following compound? `O=C(/C=C/C=C/c1ccc2c(c1)OCO2)N1CCCCC1`
Reply text: 467

###

tested on: P12-Ichikawa; experiment: cell viability relative to DMSO control; higher = less cytotoxic; settings: HPLM + 10% dialyzed FBS; 48 h; 5.12 µM
Please respond with reported cell viability for every item in the list.
Numbers only, in %.

C/C(=C\c1csc(C)n1)[C@@H]1C[C@@H]2O[C@@H]2CCC[C@H](C)[C@H](O)[C@@H](C)C(=O)C(C)(C)[C@@H](O)CC(=O)O1; 21.1
CO[C@H]1/C=C/O[C@@]2(C)Oc3c(C)c(O)c4c(O)c(c(/C=N/N5CCN(C)CC5)c(O)c4c3C2=O)NC(=O)/C(C)=C\C=C\[C@H](C)[C@H](O)[C@@H](C)[C@@H](O)[C@@H](C)[C@H](OC(C)=O)[C@@H]1C; 99.8
O=C1CCC[C@@H]2[C@H]3CCC[N+]4([O-])CCC[C@@H](CN12)[C@@H]34 (stereo partly drawn); 89.5
O=C(O)c1ccc(-c2c[nH]c3ncc(-c4ccccc4)cc23)cc1C1CCCC1; 117
O=C(O)CSCC(=O)NC1CCSC1=O (stereo not drawn); 117
CC1=CC=C2\N=C/3N(CC[C@@]3(O)C(=O)C2=C1)C4=CC=CC=C4; 82
COc1cc(Nc2ncc(F)c(Nc3ccc4c(n3)N(COP(=O)(O)O)C(=O)C(C)(C)O4)n2)cc(OC)c1OC; 110

// switching to the query molecule
Inquiry: What value of cell viability has been reported for the following molecule? `COc1cc(NC(=O)c2ccc(-c3ccc(Cl)cc3)o2)cc(OC)c1`
Reply text: 101

###

system: NOMO1; test: cell viability relative to DMSO control; higher = less cytotoxic; details: RPMI 5 mM glucose + 10% dialyzed FBS; 48 h; 0.00234 µM
EXPERIMENTAL ENDPOINT: cell viability (%)
Numbers only, in %.

CN(c1nccc(=O)[nH]1)C1CCN(c2nc3ccccc3n2Cc2ccc(F)cc2)CC1; 108
COC1=CC(=CC=C1)C2=CC=C(NC(=O)/C3=C(/CCC3)C(O)=O)C(=C2)F; 105
COc1ccc2c(OCc3nnc4ccc(-c5ccccc5)nn34)ccnc2c1; 123

Hi team, please reply with cell viability for each item in this list.
1. NC(=O)c1ccc(-c2nc(-c3ccc4c(c3)OCO4)c(-c3ccccn3)[nH]2)cc1
2. O=C(O)[C@@H](c1ccc(OCc2ccc3ccccc3n2)cc1)C1CCCC1
3. CCNC(=O)Nc1ccc(-c2nc3c(c(N4CCOC[C@@H]4C)n2)CCN(C2COC2)C3)cc1
4. NCCCC(O)(P(=O)(O)O)P(=O)(O)O.O.O.O.[Na+]
5. COCCCOc1ccnc(C[S+]([O-])c2nc3ccccc3[nH]2)c1C (stereo unspecified)
6. N#CC1(c2ccc(NC(=O)c3cccnc3NCc3ccncc3)cc2)CCCC1
7. Cn1c(=O)c2[nH]cnc2n(C)c1=O

Reply text:
1. 108
2. 101
3. 115
4. 116
5. 114
6. 105
7. 108

Inquiry: What value of cell viability has been reported for the following compound? `Nc1nc(Nc2ccc([S+](N)(=O)[O-])cc2)nn1C(=O)c1c(F)cccc1F`
Reply text: 86.1

###

tested on: NOMO1; experiment: cell viability relative to DMSO control; higher = less cytotoxic; details: RPMI 5 mM glucose + 10% FBS; 48 h; 0.0632 µM
EXPERIMENTAL ENDPOINT: cell viability (%)
Give bare numbers, in %.

Known results for compounds:
CCCc1nc2c(C)cc(-c3nc4ccccc4n3C)cc2n1Cc1ccc(-c2ccccc2C(=O)O)cc1; 150
C[C@H]1C[C@H]2[C@@H]3CCC4=CC(=O)C=C[C@]4(C)[C@H]3C(=O)C[C@]2(C)[C@@]1(O)C(=O)CO; 80.8
CN1CC/C(CC1)=C3\c4ccccc4CC(=O)c2sccc23; 136

Hi team, please reply with cell viability for each item in this list.
1. COc1cccc2c(NCc3ccccc3)nc(-n3c(N)nc4ccccc43)nc12
2. FC(F)(F)C1=CC=C2C(SCCCCCO\C3=C\O\C(CN4CCOCC4)=C/C3=O)=CC=NC2=C1
3. O=C(C[C@@H]1C/C=C\CCC(=O)O[C@H](c2ccccc2)CNC1=O)NCc1ccc(Cl)cc1
4. CCc1ccc(C(=O)Nc2cc(CN3CCN(C)CC3)cc(C(F)(F)F)c2)cc1C#Cc1cnc2ccnn2c1

Reply text:
[117, 118, 104, 120]

Hi team, please reply with cell viability for each item in this list.
1. O=C(O)CCNc1cc(N2CCc3ccccc3CC2)nc(-c2ccccn2)n1
2. CCc1cccc2c3c([nH]c12)C(CC)(CC(=O)O)OCC3 (centres undefined)

Reply text:
1. 104
2. 85
